Source of measurements: PubChem BioAssay (NCI)

Assay: NCI Yeast Anticancer Drug Screen. Data for the mec2-1 strain (AID 157)
Conditions: S. cerevisiae mec2-1 strain, at 50.0 µM (retest, dose inferred, filed as 5.0), active compounds read high
This is part of a sample that, as a whole, favours compounds with a hit. Of some 79,000 tested, about 15% had one in any assay.
Cut-off 50% on growth inhibition, inclusive. At or above means rule met; below means rule not met.

1) C/C=C\C=N\NC(N)=S	rule not met
2) COP(=O)(OC)OCC1OC(n2cnc3c(N)ncnc32)C(O)C1O (configuration not stated)	rule not met
3) O=Cc1ccc2c(c1)CC1(C2)Cc2ccc3c(c2C1)CCC3 (configuration not stated)	rule met
4) CCOC(=O)C(NNc1ccccc1)C(c1ccccc1)[P+](c1ccccc1)(c1ccccc1)c1ccccc1 (configuration not stated)	rule met
5) Oc1ccccc1C(=NNc1ccccc1)c1ccccc1O	rule met
6) O=C1c2cc(Br)cc(Br)c2NCCC1(Br)Br	rule met
7) Oc1cc(-[n+]2ccc3ccccc3c2)c(O)c2ccccc12	rule not met
8) CCCCCCCCCCCCCCN1CCSCC1	rule not met
9) CC(=O)/C(=C\c1cccc(Cl)c1)C(=O)CCN(C)C	rule not met
10) O=C(/C=C/c1cccnc1)c1cc(Cl)ccc1O	rule not met
11) O=[N+]([O-])c1ccc(CC(c2ccc([N+](=O)[O-])cc2)(c2ccc([N+](=O)[O-])cc2)c2ccc([N+](=O)[O-])cc2)cc1	rule not met
12) CC(C)N=Cc1cc(Br)cc(Br)c1O.CC(C)N=Cc1cc(Br)cc(Br)c1O.[Co]	rule met
13) CCCCCCCNC1CCCc2cc(OC)ccc21 (configuration not stated)	rule not met
14) Cc1ccc(S(=O)(=O)NC2(C=O)CCC(C(C)(C)C)CC2)cc1 (configuration not stated)	rule met
15) Cc1nc2c(Cl)cccc2c2ccccc12	rule met
16) CCN(CC)CCNC(=O)c1ccc2c(c1O)C(=O)c1ccccc1C2=O	rule not met
17) O=C1C(Cl)=C(c2ccc([N+](=O)[O-])cc2)C(=O)c2c(O)cccc21	rule met
18) CCN(CC)C(=S)n1c(=S)nc(N(CC)CC)sc1=S	rule met
19) S=C=NCCCCCCN=C=S	rule met
20) N#CSCC(=O)c1ccc2ccccc2c1	rule met
21) COc1cc(C)cc2c(-c3c(O)cc(O)c4c3C[C@H](C)N[C@H]4C)cc(-c3cc(-c4c(O)cc(O)c5c4C[C@H](C)N[C@H]5C)c4cc(C)cc(OC)c4c3O)c(O)c12	rule not met
22) CC(C)N(C(=O)CC1(O)CCCCC1)C(C)C	rule not met
23) CN(C)CCOC1(CC2CCCCC2)CCC(C(C)(C)C)CC1 (configuration not stated)	rule met
24) C=CC1(C)CCC2C(=CCC3C(C)(COC4OC(CO)C(O)C(O)C4O)C(O)CCC23C)C1 (configuration not stated)	rule met
25) N#CCc1nc2c(s1)C(=O)c1ccccc1C2=O	rule met
26) O=C(CCl)N(Cc1ccccc1)Cc1ccccc1	rule met
27) CCCCCCCCCCOC(=O)c1cccnc1	rule met
28) O=c1c(-c2ccccc2)c1-c1ccccc1	rule met
29) Ic1[nH]c(I)c(I)c1I	rule met
30) COc1cc(/C=N/NC(=S)Nc2ccccc2)ccc1O	rule not met
31) Oc1ccc(C2Oc3ccccc3C=C2c2ccccc2)cc1 (configuration not stated)	rule met
32) c1ccc(NNc2ccc3ccccc3n2)cc1	rule not met
33) CCCCCCOC(=O)Nc1ccc(S(=O)(=O)N2CCCCC2)cc1	rule met
34) COc1ccc(N=Cc2cc(Br)cc(Br)c2O)cc1.COc1ccc(N=Cc2cc(Br)cc(Br)c2O)cc1.[Co]	rule met
35) O=C(N/N=C/c1ccc2c(c1)OCO2)c1ccc([N+](=O)[O-])cc1	rule not met
36) NNc1cccc(C(F)(F)F)c1	rule met
37) CCCC(C)OC(=O)Nc1cccc(Cl)c1 (configuration not stated)	rule not met
38) O=C1C2=C(c3ccccc31)C(c1ccccc1Cl)NC(=S)N2 (configuration not stated)	rule not met
39) COC(O)C12OC3CO[Si](C(C)C)(C(C)C)O[Si](C(C)C)(C(C)C)OC3C1Oc1nc(=O)ccn12 (configuration not stated)	rule met
40) O=C1c2ccc(S(=O)(=O)O)cc2C(=O)c2ccc(S(=O)(=O)O)cc21	rule not met
41) CCCC(=O)OCC1CC2C=CC1C2 (configuration not stated)	rule not met
42) CCCCCN(CCCCC)C(C)C(=O)c1ccc2cc(Br)c3ccccc3c2c1 (configuration not stated)	rule not met
43) CCCCNC(=S)NC1OC(CO)C(O)C(O)C1O (configuration not stated)	rule not met
44) CNC(=O)OCc1c(-c2ccccc2)c(-c2ccccc2)n(-c2ccc(OC)cc2)c1COC(=O)NC	rule met
45) COC(=O)c1nc(=S)[nH]c(C(=O)OC)c1C(=O)c1ccc(O)c(OC)c1	rule met
46) CN(C)/N=C\C1CC=CCC1 (configuration not stated)	rule not met
47) CCN(CC)C(=S)N/N=C(\C)c1cccc(C)n1	rule met
